Data origin: PubChem BioAssay AID1918937

# maps each entry to its IC50
Test system: 521955-158-R2-J5-PDC complex spheroid viability
Experiment: Anticancer human tumor 521955-158-R2-J5-PDC patient-derived pancreatic carcinoma cell line growth inhibition
Details: curve of first compound; second compound 1 µM
REPORTED_ENDPOINT: IC50 (nM)

In [3]: df
Out[3]:
                                   molecule  reported_endpoint  unit_annotation  cmp  result_value
0  CC1COCCN1c1cc(-c2ccnn2C)c2ccnc(-c3ccn[nH]3)c2n1 (stereo not given) + NC1CCC(NC2CC2c2ccccc2)CC1               IC50               nM    <          3.16
1  CC1COCCN1c1cc(C2(S(C)(=N)=O)CC2)nc(-c2ccnc3[nH]ccc23)n1 (stereo not given) + NC1CC1c1ccc(-c2cccc(O)c2)cc1               IC50               nM    =           666
2  CCc1c2c(nc3ccc(O)cc13)-c1cc3c(c(=O)n1C2)COC(=O)[C@]3(O)CC + NC1CCC(NC2CC2c2ccccc2)CC1               IC50               nM    <         0.949
3  COc1cc(Nc2ncc3c(n2)-c2ccc(Cl)cc2C(c2c(F)cccc2OC)=NC3)ccc1C(=O)O + NC1CCC(NC2CC2c2ccccc2)CC1               IC50               nM    =          74.5
4  CC1COCCN1c1cc(-c2ccnn2C)c2ccnc(-c3ccn[nH]3)c2n1 (stereo not given) + NC1CC1c1ccc(-c2cccc(O)c2)cc1               IC50               nM    <          3.16

----------
Test system: 521955-158-R2-J5-PDC complex spheroid viability
Test: Anticancer human tumor 521955-158-R2-J5-PDC cell line growth inhibition;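 further: spheroids exposed to agents for seven days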;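 on viability, T/C: percent of DMSO vehicle control luminescence viability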
Settings: second compound 10 µM; first compound 1 µM; stronger effect = lower value
# maps each entry to its viability, T/C
REPORTED_ENDPOINT: viability, T/C

In [3]: df
Out[3]:
                                   molecule  result_value
0  COc1ccc([C@@H](O)c2cc(-c3ncnc4cc(N5CCOCC5)ccc34)c(F)cc2Cl)nn1 + NC1CC1c1ccc(-c2cccc(O)c2)cc1         49.9%
1  CC(C)c1c(-c2ccccc2)nc2c(C#N)c[nH]n2c1=O + NC1CCC(NC2CC2c2ccccc2)CC1         79.2%
2  CC1COCCN1c1cc(-c2ccnn2C)c2ccnc(-c3ccn[nH]3)c2n1 (configuration not stated) + NC1CCC(NC2CC2c2ccccc2)CC1          7.2%
3  O=C(C=Cn1cnc(-c2cc(C(F)(F)F)cc(C(F)(F)F)c2)n1)NNc1cnccn1 + NC1CCC(NC2CC2c2ccccc2)CC1         13.3%
4  CC1COCCN1c1cc(C2(S(C)(=N)=O)CC2)nc(-c2ccnc3[nH]ccc23)n1 (configuration not stated) + NC1CCC(NC2CC2c2ccccc2)CC1         16.2%
5  CC1COCCN1c1cc(-c2ccnn2C)c2ccnc(-c3ccn[nH]3)c2n1 (configuration not stated) + NC1CC1c1ccc(-c2cccc(O)c2)cc1         9.48%
6  COc1cc(Nc2ncc3c(n2)-c2ccc(Cl)cc2C(c2c(F)cccc2OC)=NC3)ccc1C(=O)O + NC1CCC(NC2CC2c2ccccc2)CC1         36.7%
